Tested on: PSEUDOMONAS CEPACIA 296I
Test: In vitro antibacterial activity, MIC, BHI agar dilution
Assay type: cell-based
Conditions: P. cepacia 296I, unit assumed
Would you kindly list MIC for each of these compounds?
Give bare numbers, in µg/mL.

Please review the entries below; each comes with its answer.
{"compound": "CC[C@H]1OC(=O)[C@H](C)C(=O)[C@H](C)[C@@H](O[C@@H]2O[C@H](C)C[C@H](N(C)C)[C@H]2O)[C@](C)(OC)C[C@@H](C)C2=N[C@H](COCc3ccccc3)CN3C(=O)O[C@@]1(C)[C@H]3[C@H]2C [Example 88]", "study_system": "PSEUDOMONAS CEPACIA 296I", "unit_abbreviation": "µg/mL", "MIC": 100}
{"compound": "CCC1OC(=O)C(C)C(=O)C(C)C(OC2OC(C)CC(N(C)C)C2O)C(C)(OC)CC(C)C2=NC(COCc3cc(OC)cc(OC)c3)CN3C(=O)OC1(C)C3C2C (centres unmarked) [Example 100]", "study_system": "PSEUDOMONAS CEPACIA 296I", "unit_abbreviation": "µg/mL", "MIC": 100}
{"compound": "CC[C@H]1OC(=O)[C@H](C)C(=O)[C@H](C)[C@@H](O[C@@H]2O[C@H](C)C[C@H](N(C)C)[C@H]2O)[C@](C)(OC)C[C@@H](C)C2=NC[C@H](COCc3cccc(F)c3)N3C(=O)O[C@@]1(C)[C@H]3[C@H]2C [Example 72]", "study_system": "PSEUDOMONAS CEPACIA 296I", "unit_abbreviation": "µg/mL", "MIC": 50}

Moving on to another compound below.
Tell me the measured MIC of CC[C@H]1OC(=O)[C@H](C)C(=O)[C@H](C)[C@@H](O[C@@H]2O[C@H](C)C[C@H](N(C)C)[C@H]2O)[C@](C)(OC)C[C@@H](C)C2=NCC(COC(=O)c3cccc4[nH]ccc34)N3C(=O)O[C@@]1(C)[C@H]3[C@H]2C (some centres unmarked) [Example 144] , please. 50
